Target: PARP7 (Homo sapiens, UniProt Q7Z3E1)
Construct: purchased BPS 80527
Sequence (Q7Z3E1 whole entry): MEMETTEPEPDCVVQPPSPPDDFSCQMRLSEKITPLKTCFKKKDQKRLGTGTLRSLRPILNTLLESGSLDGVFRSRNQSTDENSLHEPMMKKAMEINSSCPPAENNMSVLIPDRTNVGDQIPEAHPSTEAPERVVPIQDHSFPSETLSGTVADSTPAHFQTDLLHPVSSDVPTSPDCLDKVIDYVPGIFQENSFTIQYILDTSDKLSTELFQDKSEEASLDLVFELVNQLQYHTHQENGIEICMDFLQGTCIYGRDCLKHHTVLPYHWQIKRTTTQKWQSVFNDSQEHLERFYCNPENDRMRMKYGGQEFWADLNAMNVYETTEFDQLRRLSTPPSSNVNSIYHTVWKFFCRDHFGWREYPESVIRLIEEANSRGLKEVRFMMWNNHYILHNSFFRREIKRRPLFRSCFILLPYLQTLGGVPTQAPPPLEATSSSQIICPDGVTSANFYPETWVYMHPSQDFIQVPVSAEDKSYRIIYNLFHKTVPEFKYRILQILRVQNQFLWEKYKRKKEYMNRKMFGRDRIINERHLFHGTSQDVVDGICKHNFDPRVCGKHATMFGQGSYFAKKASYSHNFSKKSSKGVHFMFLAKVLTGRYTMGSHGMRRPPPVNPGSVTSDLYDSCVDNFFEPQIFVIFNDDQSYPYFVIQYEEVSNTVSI
Assay: Inhibition of the compound on PARP7 protein activity (ADP-ribosylation, chemiluminescence)
Type: biochemical
Conditions: Histone H1 coated plate, Biotin-Labeled NAD+, 2 h at room temperature, chemiluminescence; read-out: PARP7 activity inhibition IC50
pIC50: −log10 of the molar value.
The following molecules are shown together with reported pIC50 values.

[[record]]
molecule = "Cc1cc(=O)n(C)nc1-c1ccc(C(=O)NCCCC(C)Nc2cn[nH]c(=O)c2C(F)(F)F)cc1 (stereo not drawn)"
result = "7.00 to 7.52"

[[record]]
molecule = "CC(CCCNC(=O)c1ccc(-c2ncc(C3CCCC3)s2)cc1)Nc1cn[nH]c(=O)c1C(F)(F)F (stereo not drawn)"
result = "> 8.52"

[[record]]
molecule = "CC(CCCNC(=O)c1ccc(-c2ncc(C(F)(F)F)s2)cc1F)Nc1cc[nH]c(=O)c1C#N (stereo not drawn)"
result = "< 7.00"

[[record]]
molecule = "COc1cnc(-c2ccc(C(=O)NCCCC(C)Nc3cn[nH]c(=O)c3C(F)(F)F)c(F)c2)s1 (stereo not drawn)"
result = "> 8.52"

[[record]]
molecule = "CC(CCCNC(=O)c1ccc(-c2ncc(N3CC(F)C3)s2)cc1)Nc1cn[nH]c(=O)c1C(F)(F)F (stereo not drawn)"
result = "8.00 to 8.52"


Can you look up pIC50 on PARP7 (Homo sapiens, UniProt Q7Z3E1) for O=C(NCCCC(Nc1cn[nH]c(=O)c1C(F)(F)F)C(=O)N1CCOCC1)c1cnc(-c2ncc(C(F)(F)F)cn2)cn1 (stereo not drawn) ?
> 8.52

Same lookup for CC(CCCN(C)C(=O)c1cnc(N2CCN(C3CC3)CC2)cn1)Nc1cn[nH]c(=O)c1C(F)(F)F (stereo not drawn) , please.
< 7.00

Same lookup for Cc1cc(-c2ccc(C(=O)NCCCC(C)Nc3cn[nH]c(=O)c3C(F)(F)F)cc2)ncc1C#N (stereo not drawn) , please.
> 8.52

Same lookup for CC(CCCNC(=O)c1ccc(-c2cc(C(F)(F)F)on2)cc1)Nc1cn[nH]c(=O)c1C(F)(F)F (stereo not drawn) , please.
8.00 to 8.52

====

Biological target: PARP7 (Homo sapiens, UniProt Q7Z3E1)
Construct: purchased BPS 80527
Test: Inhibition of the compound on PARP7 protein activity (ADP-ribosylation, chemiluminescence)
Format: biochemical
Details: Histone H1 coated plate, Biotin-Labeled NAD+, 2 h at room temperature, chemiluminescence; read-out: PARP7 activity inhibition IC50
The following compounds are shown together with reported IC50 values.

Check out these entries, answers already filled in.
[[record]]
compound = "CC(CCCNC(=O)c1ccc(-c2ncc(C(F)F)s2)cn1)Nc1cn[nH]c(=O)c1C(F)(F)F (stereo not drawn)"
experimental_system = "PARP7 (Homo sapiens, UniProt Q7Z3E1)"
measurement_name = "IC50"
result = "< 3 nM"

[[record]]
compound = "CC(CCCNC(=O)c1ccc(-n2cncn2)c(F)c1)Nc1cn[nH]c(=O)c1C(F)(F)F (stereo not drawn)"
experimental_system = "PARP7 (Homo sapiens, UniProt Q7Z3E1)"
measurement_name = "IC50"
result = "10 to 30 nM"

[[record]]
compound = "O=C(NCCC[C@@H](Nc1cn[nH]c(=O)c1C(F)(F)F)C(=O)N1CC[C@@H](F)C1)c1ccc(-c2ncc(C(F)(F)F)s2)cc1"
experimental_system = "PARP7 (Homo sapiens, UniProt Q7Z3E1)"
measurement_name = "IC50"
result = "< 3 nM"

[[record]]
compound = "COc1cnc(-c2ccc(C(=O)NCCCC(C)Nc3cc[nH]c(=O)c3C(F)(F)F)c(F)c2)s1 (stereo not drawn)"
experimental_system = "PARP7 (Homo sapiens, UniProt Q7Z3E1)"
measurement_name = "IC50"
result = "< 3 nM"

[[record]]
compound = "CC(CCCNC(=O)c1ccc(-c2cscn2)nc1)Nc1cn[nH]c(=O)c1C(F)(F)F (stereo not drawn)"
experimental_system = "PARP7 (Homo sapiens, UniProt Q7Z3E1)"
measurement_name = "IC50"
result = "< 3 nM"


Look up IC50: CCOc1cnc(-c2ccc(C(=O)NCCCC(C)Nc3cn[nH]c(=O)c3C(F)(F)F)cc2)s1 (stereo not drawn)
< 3 nM

Same lookup for CC(CCCNC(=O)c1ccc(-c2ncc(CC3CCCC3)s2)cc1)Nc1cn[nH]c(=O)c1C(F)(F)F (stereo not drawn) , please.
< 3 nM

Same lookup for O=C(NCCCC(Nc1cn[nH]c(=O)c1C(F)(F)F)C(=O)N1CCCC1)c1ccc(-c2ncc(C(F)(F)F)cn2)cc1 (stereo not drawn) , please.
< 3 nM

Same lookup for O=C(NCCCC(Nc1cn[nH]c(=O)c1C(F)(F)F)C1CC1)c1cnc(-c2ncc(C(F)(F)F)s2)cn1 (stereo not drawn) , please.
3 to 10 nM

Same lookup for COc1nc(-c2ccc(C(=O)NCCCC(C)Nc3cn[nH]c(=O)c3C(F)(F)F)cc2)cs1 (stereo not drawn) , please.
30 to 100 nM

Same lookup for `Cc1c(CCC(=O)Nc2ncc(-c3ncc(C(F)(F)F)cn3)cc2F)c[nH]c(=O)c1C(F)(F)F` , please.
3 to 10 nM

Same lookup for CC(CCCNC(=O)c1ccc(-c2ncc(C3CC3)s2)cc1)Nc1cn[nH]c(=O)c1C(F)(F)F (stereo not drawn) , please.
< 3 nM

Same lookup for CC(CCCNC(=O)c1ccc(-c2cc(C(F)(F)F)nn2C)cc1)Nc1cn[nH]c(=O)c1C(F)(F)F (stereo not drawn) , please.
10 to 30 nM

Same lookup for CC(CCCNC(=O)c1ccc(-c2cc(-c3cccnc3)sn2)cc1)Nc1cn[nH]c(=O)c1C(F)(F)F (stereo not drawn) , please.
< 3 nM

Same lookup for CC(CCCNC(=O)c1ccc(-c2cc(C(F)(F)F)n(C)n2)cc1)Nc1cn[nH]c(=O)c1C(F)(F)F (stereo not drawn) , please.
< 3 nM

====

The following compounds are shown together with reported pIC50 values.
Test system: NCI-H1373 cells
Test: Inhibition on NCI-H1373 cell proliferation (Cell-Titer-Glo)
Format: cell-based
Settings: Homo sapiens, 144 h; NCI-H1373 cells, incubation for 6 days, Cell-Titer-Glo; read-out: NCI-H1373 cell proliferation inhibition IC50
pIC50: −log10 of the molar value.

Check out these entries, answers already filled in.
[[record]]
compound = "CC(CCCNC(=O)c1cnc(-c2ncc(C(F)F)s2)cn1)Nc1cn[nH]c(=O)c1C(F)(F)F (stereo not shown)"
measurement_name = "pIC50"
result = "5.52 to 6.00"

[[record]]
compound = "CC(CCCNC(=O)c1cnc(-c2ncc(C(F)(F)F)s2)cn1)Nc1cc[nH]c(=O)c1C(F)(F)F (stereo not shown)"
measurement_name = "pIC50"
result = "< 5.52"

[[record]]
compound = "CC(CCCNC(=O)c1ccc(-c2cscn2)cc1F)Nc1cn[nH]c(=O)c1C(F)(F)F (stereo not shown)"
measurement_name = "pIC50"
result = "< 5.52"


# next compound below
Look up pIC50: CC(CCCNC(=O)c1ccc(-c2cc(C(F)(F)F)sn2)cc1F)Nc1cn[nH]c(=O)c1C(F)(F)F (stereo not shown)
> 6.52

====

Molecular target: PARP7 (Homo sapiens, UniProt Q7Z3E1)
Construct: purchased BPS 80527
Test: PARP7 TR-FRET binding inhibition (displacement of probe RBN011147)
Conditions: TR-FRET, Biotin-labeled probe RBN011147; read-out: PARP7 binding inhibition IC50
pIC50: −log10 of the molar value.
The following compounds are shown together with reported pIC50 values.

[[record]]
compound = "Cc1c(CCC(=O)Nc2ccc(-c3ncc(C(F)(F)F)cn3)cn2)c[nH]c(=O)c1C(F)(F)F"
result = "7.00 to 7.52"

[[record]]
compound = "CC(CCCNC(=O)c1ccc2c(=O)n(C)cnc2c1)Nc1cn[nH]c(=O)c1C(F)(F)F (centres unmarked)"
result = "7.00 to 7.52"

[[record]]
compound = "CC(CCCNC(=O)c1cc(-c2ncc(C(F)(F)F)cn2)on1)Nc1cn[nH]c(=O)c1C(F)(F)F (centres unmarked)"
result = "> 8.00"

[[record]]
compound = "CC(CCCN(C)C(=O)c1cnc(N2CCOCC2)cn1)Nc1cn[nH]c(=O)c1C(F)(F)F (centres unmarked)"
result = "< 7.00"

[[record]]
compound = "CC(CCCNC(=O)c1ccc(-n2cc(C(F)(F)F)cn2)nc1)Nc1cn[nH]c(=O)c1C(F)(F)F (centres unmarked)"
result = "> 8.00"


Look up pIC50: Cc1cnc(-c2cnc(C(=O)NCCCC(C)Nc3cn[nH]c(=O)c3C(F)(F)F)cn2)s1 (centres unmarked)
7.52 to 8.00

====

The following compounds are shown together with reported pIC50 values.
System: NCI-H1373 cells
Test: Inhibition on NCI-H1373 cell proliferation (Cell-Titer-Glo)
Format: cell-based
Settings: Homo sapiens, 144 h; NCI-H1373 cells, incubation for 6 days, Cell-Titer-Glo; read-out: NCI-H1373 cell proliferation inhibition IC50
Protocol: The inhibitory effect of the compound on PARP7 was evaluated by testing the inhibitory effect of the compound on NCI-H1373 cell proliferation. NCI-H1373 cells (ATCC, CRL-5866) were cultured in a complete medium, namely, a RPMI-1640 medium (Gibco, 22400089) containing 10% fetal bovine serum (Corning, 35-081-CV). Negative control wells and positive control wells were added with 50 nL DMSO (Sigma, D2650), respectively. […]
pIC50: −log10 of the molar value.

Check out these entries, answers already filled in.
[[record]]
compound = "CC(CCCNC(=O)c1ccc(-n2cc(C(F)(F)F)cn2)cc1)Nc1cn[nH]c(=O)c1C(F)(F)F (stereo not shown) [Example 61]"
result = "> 6.52"

[[record]]
compound = "CC(CCCNC(=O)c1ncc(-c2ncc(C(F)F)s2)cc1F)Nc1cn[nH]c(=O)c1C(F)(F)F (stereo not shown) [Example 74]"
result = "< 5.52"

[[record]]
compound = "CC(CCCNC(=O)c1ccc(-c2cc(C(F)(F)F)sn2)cc1)Nc1cn[nH]c(=O)c1C(F)(F)F (stereo not shown) [Example 83]"
result = "> 6.52"

[[record]]
compound = "Cc1cc(NC(C)CCCNC(=O)c2cnc(-c3ncc(C(F)(F)F)cn3)cn2)c(C#N)c(=O)[nH]1 (stereo not shown) [Example 35]"
result = "< 5.52"

[[record]]
compound = "CC(CCCNC(=O)c1cnc(-c2ncc(C(F)(F)F)s2)cn1)Nc1cn[nH]c(=O)c1C(F)(F)F (stereo not shown) [Example 26]"
result = "5.52 to 6.00"


Look up pIC50: NC(=O)c1cccc2cn(CCCn3cnc4cc(-c5ncc(C(F)(F)F)cn5)c(F)cc4c3=O)nc12 [Example 252]
< 5.52

Same lookup for CC(CCCNC(=O)c1ccc(-c2nn(C)cc2F)cc1)Nc1cn[nH]c(=O)c1C(F)(F)F (stereo not shown) [Example 192] , please.
< 5.52
